Biological target: T1, cyclin T1 (CycT1), purified alone, wild type (human, UniProt O60563 1-264)
T1 construct: source: purified
T1 sequence (O60563 1-264): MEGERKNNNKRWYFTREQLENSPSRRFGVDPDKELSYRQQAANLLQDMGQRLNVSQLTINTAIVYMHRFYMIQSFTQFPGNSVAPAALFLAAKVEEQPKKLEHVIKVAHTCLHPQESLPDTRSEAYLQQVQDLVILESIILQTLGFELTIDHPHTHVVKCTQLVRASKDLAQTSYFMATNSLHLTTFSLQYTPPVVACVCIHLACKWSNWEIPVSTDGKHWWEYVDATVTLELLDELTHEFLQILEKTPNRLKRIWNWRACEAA
Assay: fluorescence polarisation
Conditions: both partners purified
GABA = NCCCC(=O)O
Property label: pKd
Note: pKd values are expressed as the negative base-10 logarithm of concentration in M.

Entry {FAM-GABA}-SPLFAEPYKVTSKEDKLSSRIQSMLGNYDEMKDFIG-NH2 (source: synthetic peptide (University of Utah DNA/Peptide Facility)) [fluorescein-labeled AFF4(32–67) peptide] , pKd reported as 6.98
